tested.target: panel of 255 wild-type kinases (Homo sapiens, UniProt P28482)
Sequence (P28482 whole entry): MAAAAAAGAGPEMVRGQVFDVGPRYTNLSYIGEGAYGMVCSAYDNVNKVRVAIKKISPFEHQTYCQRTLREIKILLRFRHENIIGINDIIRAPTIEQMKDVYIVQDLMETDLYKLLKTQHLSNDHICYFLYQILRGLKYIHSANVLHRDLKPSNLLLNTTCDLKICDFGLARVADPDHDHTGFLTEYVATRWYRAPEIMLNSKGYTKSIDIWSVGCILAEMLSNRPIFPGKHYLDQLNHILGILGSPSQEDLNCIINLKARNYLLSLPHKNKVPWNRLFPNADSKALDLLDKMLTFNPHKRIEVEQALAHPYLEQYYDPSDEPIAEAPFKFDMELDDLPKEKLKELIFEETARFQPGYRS
assay.method.text: Kinase panel profiling at 1 µmol/L (MSA or IMAP), percentage inhibition
Assay type: biochemical
reported.conditions: kinase Erk2; 1 µmol/L single concentration; read-out: %-inhibition at 1 µmol/L, Erk2
Kindly supply the reported inhibition at 1 µM values for the records listed here.
Quick reminder: number only, in %, skip the unit.

Any idea what its inhibition at 1 µM is? The molecule is `Cn1cc(-c2cc3c(N4CCN(c5ncc([C@@](C)(N)c6ccc(F)cc6)cn5)CC4)ncnn3c2)cn1`
5

Any idea what its inhibition at 1 µM is? The molecule is `CN1CCN(c2ccc(C(=O)Nc3n[nH]c4ccc(Cc5cc(F)cc(F)c5)cc34)c(NC3CCOCC3)c2)CC1`
-0.572

Any idea what its inhibition at 1 µM is? The molecule is `C[C@H](Nc1ncnc2nc[nH]c12)c1cc2cccc(Cl)c2c(=O)n1-c1ccccc1`
0.0602

Any idea what its inhibition at 1 µM is? The molecule is `CO[C@]1(C(=O)N[C@@H](C)c2ccc(-n3cc(F)cn3)nc2)CC[C@H](c2nc(C)cc(Nc3cc(C)[nH]n3)n2)CC1`
0.23

Any idea what its inhibition at 1 µM is? The molecule is `C[C@H]1Oc2cc(cnc2N)-c2c(nn(C)c2C#N)CN(C)C(=O)c2ccc(F)cc21`
0.392

Any idea what its inhibition at 1 µM is? The molecule is `CCN1CCN(c2ccc(Nc3cc(N(C)C(=O)Nc4c(Cl)c(OC)cc(OC)c4Cl)ncn3)cc2)CC1`
-4

Any idea what its inhibition at 1 µM is? The molecule is `CCn1c(=O)c(-c2cc(NC(=O)Nc3ccccc3)c(F)cc2Br)cc2cnc(NC)cc21`
-2.43

Any idea what its inhibition at 1 µM is? The molecule is `O=C(Nc1cnn2ccc(N3CCC[C@@H]3c3cc(F)ccc3F)nc12)N1CC[C@H](O)C1`
-6

Any idea what its inhibition at 1 µM is? The molecule is `CCc1nc(C(N)=O)c(Nc2ccc(N3CCC(N4CCN(C)CC4)CC3)c(OC)c2)nc1NC1CCOCC1`
-1.15

Any idea what its inhibition at 1 µM is? The molecule is `Cn1cnc2c(F)c(Nc3ccc(Br)cc3Cl)c(C(=O)NOCCO)cc21`
-4.4

Any idea what its inhibition at 1 µM is? The molecule is `CCN1C(=O)N(c2c(F)c(OC)cc(OC)c2F)Cc2cnc3[nH]c(CN4CCOCC4)cc3c21`
-1.6

Any idea what its inhibition at 1 µM is? The molecule is `COc1ccc(CN2C3CC2CN(c2ccc(-c4cc(OCC(C)(C)O)cn5ncc(C#N)c45)cn2)C3)cn1`
-4

Any idea what its inhibition at 1 µM is? The molecule is `Cc1cc(Nc2ncnc3ccc(NC4=NC(C)(C)CO4)cc23)ccc1Oc1ccn2ncnc2c1`
-0.547

Any idea what its inhibition at 1 µM is? The molecule is `FC(F)(F)c1ccc(CNc2ccc(Cc3c[nH]c4ncc(Cl)cc34)cn2)cn1`
-3.53

Any idea what its inhibition at 1 µM is? The molecule is `C=CC(=O)N1CCC([C@@H]2CCNc3c(C(N)=O)c(-c4ccc(Oc5ccccc5)cc4)nn32)CC1`
-5

----------
tested.target: panel of 255 wild-type kinases (Homo sapiens, UniProt P51812)
Sequence (P51812 whole entry): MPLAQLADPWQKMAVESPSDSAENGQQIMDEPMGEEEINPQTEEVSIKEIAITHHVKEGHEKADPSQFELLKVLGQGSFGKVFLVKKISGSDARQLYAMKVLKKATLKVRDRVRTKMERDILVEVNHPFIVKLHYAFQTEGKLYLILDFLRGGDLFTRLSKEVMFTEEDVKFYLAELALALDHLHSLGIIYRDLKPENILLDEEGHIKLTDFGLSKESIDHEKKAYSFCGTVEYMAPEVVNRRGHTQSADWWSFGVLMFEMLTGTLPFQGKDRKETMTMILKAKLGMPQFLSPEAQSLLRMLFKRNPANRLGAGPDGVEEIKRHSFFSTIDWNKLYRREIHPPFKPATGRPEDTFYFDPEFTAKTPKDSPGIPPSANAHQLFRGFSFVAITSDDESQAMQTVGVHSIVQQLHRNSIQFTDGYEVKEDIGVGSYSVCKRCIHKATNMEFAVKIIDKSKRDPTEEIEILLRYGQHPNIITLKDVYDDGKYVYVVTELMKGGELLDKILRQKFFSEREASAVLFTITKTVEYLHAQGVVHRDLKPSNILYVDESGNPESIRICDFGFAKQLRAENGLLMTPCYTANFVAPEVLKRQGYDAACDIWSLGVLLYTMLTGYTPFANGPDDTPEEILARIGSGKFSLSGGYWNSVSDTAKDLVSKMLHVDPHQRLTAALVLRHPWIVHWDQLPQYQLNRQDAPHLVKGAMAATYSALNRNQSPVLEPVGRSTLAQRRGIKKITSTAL
assay.method.text: Kinase panel profiling at 1 µmol/L (MSA or IMAP), percentage inhibition
Assay type: biochemical
reported.conditions: kinase RSK2; 1 µmol/L single concentration; read-out: %-inhibition at 1 µmol/L, RSK2
Kindly supply the reported inhibition at 1 µM values for the records listed here.
Quick reminder: number only, in %, skip the unit.

Any idea what its inhibition at 1 µM is? The molecule is COc1cc2ncnc(Nc3ccc(F)c(Cl)c3)c2cc1NC(=O)/C=C/CN1CCCCC1 [dacomitinib]
8

Any idea what its inhibition at 1 µM is? The molecule is C=CC(=O)N1CCC([C@@H]2CCNc3c(C(N)=O)c(-c4ccc(Oc5ccccc5)cc4)nn32)CC1 [zanubrutinib]
-6

Any idea what its inhibition at 1 µM is? The molecule is Cc1nc(NC(=O)N2CCC[C@H]2C(N)=O)sc1-c1ccnc(C(C)(C)C(F)(F)F)c1 [alpelisib]
-1.78

Any idea what its inhibition at 1 µM is? The molecule is C[C@H](Nc1ncnc2nc[nH]c12)c1cc2cccc(Cl)c2c(=O)n1-c1ccccc1 [duvelisib]
-3.62

Any idea what its inhibition at 1 µM is? The molecule is CCc1nc(C(N)=O)c(Nc2ccc(N3CCC(N4CCN(C)CC4)CC3)c(OC)c2)nc1NC1CCOCC1 [gilteritinib]
48

Any idea what its inhibition at 1 µM is? The molecule is Cn1cc(-c2cc3c(N4CCN(c5ncc([C@@](C)(N)c6ccc(F)cc6)cn5)CC4)ncnn3c2)cn1 [avapritinib]
2.57

Any idea what its inhibition at 1 µM is? The molecule is CCN1C(=O)N(c2c(F)c(OC)cc(OC)c2F)Cc2cnc3[nH]c(CN4CCOCC4)cc3c21 [pemigatinib]
-5

Any idea what its inhibition at 1 µM is? The molecule is Cn1cnc2c(F)c(Nc3ccc(Br)cc3F)c(C(=O)NOCCO)cc21 [binimetinib]
0.103

----------
tested.target: panel of 255 wild-type kinases (Homo sapiens)
assay.method.text: Kinase panel profiling at 1 µmol/L (MSA or IMAP), percentage inhibition
Type: biochemical
reported.conditions: kinase CK2α2/β; 1 µmol/L single concentration; read-out: %-inhibition at 1 µmol/L, CK2α2/β
Kindly supply the reported inhibition at 1 µM values for the records listed here.
Quick reminder: number only, in %, skip the unit.

Requested read-out inhibition at 1 µM, target or system panel of 255 wild-type kinases (Homo sapiens), entry `Cc1nc(NC(=O)N2CCC[C@H]2C(N)=O)sc1-c1ccnc(C(C)(C)C(F)(F)F)c1`
-1.53

Requested read-out inhibition at 1 µM, target or system panel of 255 wild-type kinases (Homo sapiens), entry `CN1CCN(c2ccc(C(=O)Nc3n[nH]c4ccc(Cc5cc(F)cc(F)c5)cc34)c(NC3CCOCC3)c2)CC1`
2

Requested read-out inhibition at 1 µM, target or system panel of 255 wild-type kinases (Homo sapiens), entry `CO[C@]1(C(=O)N[C@@H](C)c2ccc(-n3cc(F)cn3)nc2)CC[C@H](c2nc(C)cc(Nc3cc(C)[nH]n3)n2)CC1`
4.29

Requested read-out inhibition at 1 µM, target or system panel of 255 wild-type kinases (Homo sapiens), entry `CCn1c(=O)c(-c2cc(NC(=O)Nc3ccccc3)c(F)cc2Br)cc2cnc(NC)cc21`
-0.613

Requested read-out inhibition at 1 µM, target or system panel of 255 wild-type kinases (Homo sapiens), entry `COc1ccc(CN2C3CC2CN(c2ccc(-c4cc(OCC(C)(C)O)cn5ncc(C#N)c45)cn2)C3)cn1`
0.638

Requested read-out inhibition at 1 µM, target or system panel of 255 wild-type kinases (Homo sapiens), entry `FC(F)(F)c1ccc(CNc2ccc(Cc3c[nH]c4ncc(Cl)cc34)cn2)cn1`
0.601

Requested read-out inhibition at 1 µM, target or system panel of 255 wild-type kinases (Homo sapiens), entry `CCc1nc(C(N)=O)c(Nc2ccc(N3CCC(N4CCN(C)CC4)CC3)c(OC)c2)nc1NC1CCOCC1`
23

----------
Test system: 134 cancer cell lines
assay.method.text: Cell viability assay (ATPlite, 72 hours), IC50 on cancer cell line panel
reported.conditions: L-82, read-out: IC50 in cell proliferation assay, L-82 cell line (NPM1-ALK)
observed.property: IC50 (µM)
Quick reminder: number only, in µM, skip the unit.

Any idea what its IC50 is? The compound is `Cc1cc(Nc2ncc(Cl)c(Nc3ccccc3S(=O)(=O)C(C)C)n2)c(OC(C)C)cc1C1CCNCC1`
0.033

Any idea what its IC50 is? The compound is `O=C(c1ccc(F)c(F)c1Nc1ccc(I)cc1F)N1CC(O)([C@@H]2CCCCN2)C1`
0.25

Any idea what its IC50 is? The compound is `C[C@H](Nc1ncnc2nc[nH]c12)c1cc2cccc(Cl)c2c(=O)n1-c1ccccc1`
22.1

Any idea what its IC50 is? The compound is `Cn1cnc2c(F)c(Nc3ccc(Br)cc3F)c(C(=O)NOCCO)cc21`
1.91

Any idea what its IC50 is? The compound is `Cc1nc(NC(=O)N2CCC[C@H]2C(N)=O)sc1-c1ccnc(C(C)(C)C(F)(F)F)c1`
20.5

----------
tested.target: panel of 255 wild-type kinases (Homo sapiens)
assay.method.text: Kinase panel profiling at 1 µmol/L (MSA or IMAP), percentage inhibition
Format: biochemical
reported.conditions: kinase RSK2; 1 µmol/L single concentration; read-out: %-inhibition at 1 µmol/L, RSK2
observed.property: inhibition at 1 µM (%)
Quick reminder: number only, in %, skip the unit.

Requested read-out inhibition at 1 µM, target or system panel of 255 wild-type kinases (Homo sapiens), entry Cn1cnc2c(F)c(Nc3ccc(Br)cc3Cl)c(C(=O)NOCCO)cc21 [selumetinib]
-1.52

Requested read-out inhibition at 1 µM, target or system panel of 255 wild-type kinases (Homo sapiens), entry C[C@H]1Oc2cc(cnc2N)-c2c(nn(C)c2C#N)CN(C)C(=O)c2ccc(F)cc21 [lorlatinib]
-0.881

Requested read-out inhibition at 1 µM, target or system panel of 255 wild-type kinases (Homo sapiens), entry CCn1c(=O)c(-c2cc(NC(=O)Nc3ccccc3)c(F)cc2Br)cc2cnc(NC)cc21 [ripretinib]
3.31

Values from paper PMC9516332
